# Read-out: Interleukin-8 (IL8), CXCL8 (gene 3576)
# TEST DETAILS: BSK_CASM3C_IL8: BioMAP Diversity Plus: CASM3C Assay for Interleukin-8 (IL8) Biomarker Activity (AID 2283042);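 further: IL-8 protein level quantified by ELISA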
# STUDY CONDITIONS: primary human coronary artery smooth muscle cells; actives raise or lower the signal
Activity calls are given as the source filed them. How the source made its calls: active means hit-call score of the fitted dose curve at least 0.9, where 1 is the maximum; inactive means score below 0.9.
Outcomes: 1 for active, 0 for inactive

                                    compound  category
 0                         CCCN(CCC)C(=O)SCC         0
 1  C[C@]12C[C@H](O)[C@H]3[C@@H](CCC4=CC(=O)CC[C@@]43C)[C@@H]1CC[C@@H]2C(=O)CO         1
 2                   CCSC(=O)N(CC(C)C)CC(C)C         0
 3  C[C@]12CC[C@@H]3c4ccc(O)cc4C[C@@H](CCCCCCCCCS(=O)CCCC(F)(F)C(F)(F)F)[C@H]3[C@@H]1CC[C@@H]2O (stereo partly specified)         0
 4  CCOC(=O)[C@H](C)Oc1ccc(Oc2nc3ccc(Cl)cc3o2)cc1         0
 5         O=C(O)C1(C(=O)Nc2ccc(Cl)cc2Cl)CC1         0
 6  CCOC(=O)COc1cc(-n2ncc(C(F)(F)F)c(C)c2=O)c(F)cc1Cl         0
 7                        CCNc1nc(N)nc(Cl)n1         0
 8  CCCCC(CC)COC(=O)c1ccccc1C(=O)O (stereo unspecified)         0
 9  COC(=O)c1cccc(C)c1S(=O)(=O)NC(=O)Nc1nc(OCC(F)(F)F)nc(N(C)C)n1         0
10               CN(C)C(=O)Nc1ccc(Cl)c(Cl)c1         0
